Tested on: HS 578T breast
Experiment: NCI-60 one-dose screen, 48 h
Conditions: 10 µM unless noted
This is part of a sample that, as a whole, favours compounds with a hit. Of some 83,000 tested, about 20% had one in any assay. Active and inactive are the calls of the source. Rule for the calls: active = growth percent below 10; inactive = the rest.
Hi there, use one of these labels in your reply, thanks! YES for active, NO for inactive

query: Per the records of this test, what outcome belongs to CCCCOc1c(N)cccc1C(=O)OCCN(CC)CC ?
result: NO

query: Per the records of this test, what outcome belongs to O=C(Nc1ccccc1Cl)c1c[nH]c(=O)c(-c2ccc(N3CCCOC4(CC4)C3)cc2)c1 ?
result: NO

query: Per the records of this test, what outcome belongs to O=C1c2ccccc2OC=C(c2ccccc2)N1CCCCN1CCCCC1 ?
result: NO

query: Per the records of this test, what outcome belongs to COc1cc(/C=C/C(=O)N2CCC=CC2=O)cc(OC)c1OC ?
result: NO

query: Per the records of this test, what outcome belongs to c1ccc(-c2nc3sc(C(c4ccccc4)c4ccccc4)nn3c2-c2ccccc2)cc1 ?
result: NO

query: Per the records of this test, what outcome belongs to CCCCCCCCCCCC(=O)OCCNC(=O)C[n+]1ccccc1 ?
result: NO

query: Per the records of this test, what outcome belongs to O=C1c2ccccc2C(=O)c2c(NCCN=Cc3c(O)ccc4ccccc34)cccc21 ?
result: NO

query: Per the records of this test, what outcome belongs to Cc1c(Cl)ccc2c(C(=O)Cl)cc(-c3ccccc3)nc12 ?
result: NO

query: Per the records of this test, what outcome belongs to CC(C)(C)NC(C1=CC(C)(C)c2ccccc2C1=O)c1ccccc1 (stereo not given) ?
result: NO

query: Per the records of this test, what outcome belongs to NC(=S)NNC1CCCCC1 ?
result: NO

Others:
query: Per the records of this test, what outcome belongs to COc1cc2c(/C=C3/C(=O)Nc4ccc(O)cc43)c(Cl)n(Cc3cc(OC)c(OC)c(OC)c3)c2cc1C ?
result: YES

query: Per the records of this test, what outcome belongs to COc1ccc(-c2ccc(NC(=O)Nc3cccc(C(F)(F)F)c3)c(C)n2)cc1 ?
result: NO
